B1: E3 ubiquitin-protein ligase NEDD4-like, residues 539 to 589; numbered along this chain, Q96PU5 (parent)
chain: KTSLNPNDLGPLPPGWEERIHLDGRTFYIDHNSKITQWEDPRLQNPAITGP

Variants of: B1
assay.method.text: abundance fitness (aPCA) (normalised: wild type 0, dead -1); higher = more abundant; growth selection in yeast, the domain comes from the species named
condition.context: Homo sapiens
Classify by measured abundance fitness: y if it is equal to or exceeds -0.3, n if it is smaller.

Asked: For this variant, is measured abundance fitness -0.3 or higher? I35D
Given back: y

Asked: Please indicate if the recorded abundance fitness for T36R meets or exceeds -0.3.
Given back: y

Asked: State whether the measured abundance fitness reaches -0.3, counting equality as reaching it, for E39N
Given back: y

Asked: Given R42S , state whether its abundance fitness is at least -0.3.
Given back: n

Asked: Say whether E18T shows abundance fitness of -0.3 or more.
Given back: y

Asked: I'd appreciate it if you could say whether P6R has abundance fitness at least equal to -0.3.
Given back: y

Asked: Could you please find out whether Y28L has abundance fitness that meets -0.3 or exceeds it?
Given back: n

Asked: Assess whether reported abundance fitness for E39V sits at -0.3 or higher.
Given back: y

Asked: In plain terms: is recorded abundance fitness at least -0.3 for K34A ?
Given back: y

Asked: Please indicate if the recorded abundance fitness for N32P meets or exceeds -0.3.
Given back: n

Asked: # bool: abundance fitness of E17K >= -0.3
Given back: n

Asked: Check this variant for abundance fitness at or above -0.3: P46G
Given back: y

Asked: Is abundance fitness for D40K at or above -0.3?
Given back: n

Asked: Does abundance fitness meet or surpass -0.3 for N5H ?
Given back: y

Asked: Answer whether abundance fitness of T49A is greater than or equal to -0.3.
Given back: y

Asked: Check if abundance fitness >= -0.3 (inclusive). Item: G24M
Given back: n

Asked: Please indicate if the recorded abundance fitness for A47I meets or exceeds -0.3.
Given back: y

Asked: Test whether the variant L12H records abundance fitness of -0.3 or higher.
Given back: n

Asked: Quick check: does K1W have abundance fitness greater than or equal to -0.3?
Given back: n

Asked: For this variant, is measured abundance fitness -0.3 or higher? S3A
Given back: n

Asked: Can N32R be said to have abundance fitness at or above -0.3?
Given back: y

Asked: Hello, I need to know if Y28G has measured abundance fitness not below -0.3. Thanks!
Given back: n

Asked: In plain terms: is recorded abundance fitness at least -0.3 for P14C ?
Given back: y

Asked: Tell me whether abundance fitness is at least -0.3 here: F27I
Given back: y

Asked: Could you verify whether the entry G15Q shows abundance fitness of no less than -0.3?
Given back: n

Asked: API: above_or_equal(metric=abundance fitness, cutoff=-0.3) for item D30M
Given back: n

Asked: Item G50R with abundance fitness of -0.3 or above?
Given back: y

Asked: Could you tell me if the measured abundance fitness of L12D reaches -0.3 or more?
Given back: n

Asked: State whether the measured abundance fitness reaches -0.3, counting equality as reaching it, for G50P
Given back: y

Asked: Determine whether measured abundance fitness meets or exceeds -0.3 for Y28W
Given back: y

Asked: Does the variant T49N have recorded abundance fitness that is -0.3 or more?
Given back: n
